# System: SK-OV-3 ovarian
Classes used: true (active), false (inactive)

# molSmiles, assignedLabel
data = [
    ("CC(=O)Nc1cccc(C#Cc2cncnc2Nc2ccc(OCc3cccc(F)c3)c(Cl)c2)n1", "false"),
    ("O=C1OC(c2cccc(C(F)(F)F)c2)(c2cccc(C(F)(F)F)c2)c2ccc3ccccc3c21", "false"),
    ("Cc1ccc(-c2c3c(nn2-c2ccc(S(=O)(=O)NC(=O)Nc4ccccc4)cc2)-c2ccccc2C3)cc1", "false"),
    ("Cc1cc2nc3c4cc(C=O)ccc4n(CCN(C)C)c3nc2cc1C", "false"),
    ("CCOC(=O)c1ccc2c(c1)c1c(C)c3cnccc3c(C)c1n2C", "true"),
    ("Nc1nonc1-c1nc2cnccc2n1C1CCCCC1", "false"),
    ("O=C(Nc1ccc(OCc2nnc(-c3ccc(Cl)cc3)o2)c(F)c1)Nc1ccc(Cl)c(Cl)c1", "false"),
    ("COc1cccc2c(Nc3ccc(C(=O)O)cc3)cc(-c3ccccc3)nc12", "false"),
]

====

# Test system: MOLT-4 leukemia
Classes used: 1 for active, 0 for inactive

# molecule, assignedLabel
records = [
    ("Cc1cc2nc3c4cc(C=O)ccc4n(CCN(C)C)c3nc2cc1C", 1),
    ("O=C(Nc1ccc(OCc2nnc(-c3ccc(Cl)cc3)o2)c(F)c1)Nc1ccc(Cl)c(Cl)c1", 0),
    ("CC(C)OC(=O)Nc1ccc(-c2nc(-c3cccc(OCCN4CCOCC4)c3)c(-c3ccnc(Br)c3)[nH]2)cc1", 0),
    ("C/C(Cc1ccc(Cl)cc1)=C(\\c1ccc(OCCN2CCCCCC2)cc1)c1ccc(OC(=O)c2ccccc2)cc1", 0),
    ("O=C1C=CC(=O)C(c2cc(-c3ccc(Cl)cc3)nn2-c2ccccc2)=C1", 0),
    ("COc1ccccc1N1CCN(CC(O)COc2c(Br)c(Br)c(Br)c3c2OC(C)(C)C3)CC1 (configuration not stated)", 0),
    ("C[C@]12CC[C@@H]3c4ccc(O)cc4CC[C@H]3[C@@H]1CC[C@@H]2NS(=O)(=O)c1cccc(OC(F)(F)F)c1", 0),
]

====

Form field: TGI (one value per entry).
# Tested on: CAKI-1 renal
# protocol: NCI tumour cell line growth inhibition, 48 h

# molecule, TGI
rows = [
    ("C/C=C1/C[C@@H](C)[C@@](C)(O)C(=O)OCC2=CC[N+]3([O-])CC[C@@H](OC1=O)[C@@H]23 (some centres not stated)", "> 100 µM"),
    ("Clc1ccc(-c2ccc(CNCC3CCNCC3)o2)c(-c2ccccc2)c1", "2.9 µM"),
    ("Cc1ccc2ccc(O)cc2c1", "> 100 µM"),
    ("CCOc1ccc(NC(=O)CC2C(=O)Nc3ccccc3S2=O)cc1 (configuration not stated)", "> 92.9 µM"),
    ("COc1cc(C(=O)/C=C/c2c(C)n([O-])c3ccc(C(F)(F)F)cc3[n+]2=O)cc(OC)c1OC", "> 38.1 µM"),
    ("CC(=O)O[C@H]1C(=O)[C@@]2(C)[C@H]([C@H](OC(=O)c3ccccc3)[C@]3(O)C[C@H](OC(=O)[C@H](OC(=O)OC[C@@H]4COC(C)(C)O4)[C@@H](NC(=O)c4ccccc4)c4ccccc4)C(C)=C1C3(C)C)[C@]1(OC(C)=O)CO[C@@H]1C[C@@H]2O", "> 33.3 µM"),
    ("CC(=O)Nc1ccc(C2C(C(=O)Nc3ccccc3C)=C(C)NC(C)=C2C(=O)Nc2ccccc2C)cc1", "> 100 µM"),
    ("COc1ccc(C2c3c(n(C)c(=O)n(C)c3=O)OC(N(C)C)(N(C)C)C2(F)F)cc1 (configuration not stated)", "> 100 µM"),
    ("O=C1C=CC(=O)C(c2cc(-c3ccc(Cl)cc3)nn2-c2ccccc2)=C1", "53.5 µM"),
    ("CCCOC(=O)c1ccc2c(c1)[N+](=O)C(C(=O)c1ccccc1)=C(C(F)(F)F)[N+]2=O", "3.37 µM"),
    ("Cc1cn(C(=O)NC23CC4CC(CC(C4)C2)C3)c(=O)[nH]c1=O", "> 100 µM"),
    ("Brc1ccc2c(C3CN[C@@H](c4c[nH]c5cc(Br)ccc45)CN3)c[nH]c2c1 (some centres not stated)", "25.9 µM"),
    ("COC(=O)C(C(=O)C(=O)Nc1nc(=S)[nH][nH]1)c1csc(N)n1 (configuration not stated)", "> 100 µM"),
    ("C=C(CN1CCc2ccccc2C1)c1ccc(CCC(=O)Nc2ccccc2N)cc1", "77.1 µM"),
    ("Clc1nc(Cl)c2ncn(CC#CCn3cnc4c(Cl)nc(Cl)nc43)c2n1", "3.91 µM"),
    ("NC(C(=O)O)c1cc(=O)[nH]o1 (configuration not stated)", "> 100 µM"),
    ("COc1ccc(/C=C2/SC(c3ccccc3)N(NC(=O)CCCCCCCCC(=O)NN3C(=O)/C(=C\\c4ccc(OC)c(OC)c4)SC3c3ccccc3)C2=O)cc1OC (configuration not stated)", "> 100 µM"),
    ("COc1ccc(C(=O)Cc2ccc(Cl)cc2)cc1OC", "> 100 µM"),
    ("O=C(c1ccccc1)c1ccc2nc(-c3c(Cl)c(Cl)c(Cl)c(Cl)c3C(=O)N/N=C\\C=C\\c3ccccc3)[nH]c2c1", "> 100 µM"),
    ("N#Cc1nnc2ccccc2c1N", "> 100 µM"),
    ("COc1cc(Nc2nc3c(N)cc(C(F)(F)F)cc3nc2-c2ccccc2)cc(OC)c1OC", "> 100 µM"),
    ("N#Cc1nc(-c2ccccc2C(=O)O)oc1N", "> 100 µM"),
    ("COc1cc(/C=C2\\N=C(c3ccccc3)N(c3cc4cc(Sc5ccccc5)ccc4[nH]3)C2=O)cc(OC)c1OC", "> 75 µM"),
    ("Cc1cc(C)nc(NS(=O)(=O)c2ccc(NNc3c4ccccc4nc4c(C(=O)Nc5ccc(S(=O)(=O)N=C(N)N)cc5)cccc34)cc2)n1", "> 100 µM"),
    ("CC#CC#Cc1cccc(=O)o1", "4.78 µM"),
    ("C=C(C(=O)OC1C(CO)OC(OCC2CC[C@@H]3C[C@]4(OC(=O)C3=C)C(C)=CC(=O)C24)C(O)C1O)[C@@H]1CCC(CO)C2C(=O)C=C(C)[C@@]2(O)C1 (some centres not stated)", "7.93 µM"),
    ("O=C(/C=C/c1cccc(O)c1)c1cccc(-n2cc(-c3ccc(Cl)cc3)[nH]c2=O)c1", "4.07 µM"),
    ("COc1ccc([C@H]2[C@H](C)C3=Nc4ccccc4CN32)cc1", "> 100 µM"),
    ("COC(=O)/C=C1/SC(=Nc2ccc(C(F)(F)F)cc2)N(CCc2c[nH]c3ccc(O)cc23)C1=O", "> 100 µM"),
    ("N#CC1=C(Cl)NC(Cl)=C(C#N)C1c1ccc(Cl)cc1", "43.9 µM"),
    ("C/C(=N/NC(=S)N1CCCCC1)c1cccc(/C(C)=N\\NC(=S)N2CCCCC2)n1", "3.93 µM"),
    ("O=C(CCc1ccc(O)cc1)NCCc1cccc(O)c1", "> 50 µM"),
    ("CC(=O)OC1(C)C(=O)OC/C2=C/CN(C)CCC(OC(=O)C(O)(C(C)Cl)CC1C)C2=O (configuration not stated)", "> 100 µM"),
    ("COC12COC(=O)C1C(c1ccc3c(c1)OCO3)c1cc3c(cc1O2)OCO3 (configuration not stated)", "> 100 µM"),
    ("CCC[CH2][Sn]1([CH2]CCC)[O]CC(c2ccccn2)C[O]1", "22.1 µM"),
    ("CC1=C(/C=C/C(C)=C/C=C/C(C)=C/C=C/C=C(C)/C=C/C=C(C)/C=C/C=C(C)/C=C/C=C(\\C)C(=O)O)C(C)(C)CCC1", "> 100 µM"),
    ("CCc1cccc(CC)c1NC(=O)C(=O)Cc1nc2ccccc2o1", "> 100 µM"),
]
